Counter-ions that a name gives are not always drawn.

>  <COMPOUND>
CCCC(C)(C)CC(CN)C(=O)O.Cl (centres unmarked)

>  <melting point>
229.5 to 231 °C

$$$$
>  <COMPOUND>
CCC[C@@H](C)C[C@H](N)CC(=O)O.Cl

>  <melting point>
142.5 to 142.7 °C

$$$$
>  <COMPOUND>
CCCC(C)(C)C[C@H](N)CC(=O)O (as salt: hydrochloride) (hydrate or solvate)

>  <melting point>
194.2 to 195.2 °C

$$$$
>  <COMPOUND>
CCC[C@@H](C)C[C@H](CN)C(=O)O (as salt: hydrochloride)

>  <melting point>
226.3 to 228 °C

$$$$
>  <COMPOUND>
CCCC[C@@H](C)C[C@H](N)CC(=O)O (as salt: hydrochloride)

>  <melting point>
142.5 to 143.3 °C

$$$$
